system: HS 578T breast; test: NCI tumour cell line growth inhibition, 48 h
# key: entry, value: TGI
The figure you give is taken to be in µM; do not add the unit.

Check out these entries, answers already filled in.
1. COc1cc(-c2csc(NC(=O)Nc3cc(Cl)cc(Cl)c3)n2)cc(OC)c1OC    4.91
2. COc1ccc(/C=C\c2cc(OC)c(OC)c(OC)c2)cc1O    8.09
3. CCN(Cc1c(Cl)cccc1Cl)c1ccc(CO)c(Cl)c1    37.9
4. CCN1CCC(O)(/C=C/c2ccc(C(C)C)cc2)C(C(=O)/C=C/c2ccc(C(C)C)cc2)C1 (centres undefined)    5.68
5. COc1ccc(-c2nn(-c3ccc(NC(=O)Nc4ccc(Cl)c(C(F)(F)F)c4)cc3)cc2-c2ccncc2)cc1Cl    4.22

Could you now look at the following compound, please?
Noted for c1ccc(CN2CCN3CCN(CC2)CCN(Cc2ccccc2)CC3)cc1 : its TGI reads 35.5

* * *

test system: A498 renal; assay: NCI tumour cell line growth inhibition, 48 h
Readout label: TGI (µM)
The figure you give is taken to be in µM; do not add the unit.

1) OCCN1CCN(CC/C=C2/c3ccccc3Sc3ccc(Cl)cc32)CC1    28.1
2) COc1ccc(N2C(=O)C3c4[nH]c5ccccc5c4C4CCCCC4C3C2=O)cc1 (centres undefined)    54.4
3) CCSc1ccc(C2C(Br)C(=O)N2c2cc(OC)c(OC)c(OC)c2)cc1 (centres undefined)    0.74

Noted for O=C1C(Cl)=C(Nc2cccc(C(F)(F)F)c2)C(=O)N1Cc1ccc(Cl)cc1 : its TGI reads 15.7

* * *

# key: entry, value: GI50
system: SK-MEL-28 melanoma; experiment: NCI tumour cell line growth inhibition, 48 h

Check out these entries, answers already filled in.
1) Cn1cc(C2=C(N3CCOCC3)C(=O)NC2=O)c2ccccc21    > 25 µM
2) COc1ccc(Cn2cc3c(c2-c2cc(OC)c(OC)c(OC)c2)CCc2cnoc2-3)cc1    0.517 µM
3) Cc1nc2ccccc2c(/C=C/c2ccc(Cl)cc2)c1C(=O)/C=C/c1ccccc1    1.74 µM
4) CC(C)(C)c1ccc(NS(=O)(=O)c2ccc3nc(NC(=O)c4cnccn4)[nH]c3c2)cc1    3.57 µM
5) O=c1ccc2nc(-c3ccccn3)nn(-c3ccccc3)c-2c1    1.69 µM

Noted for Cc1ccc(-c2cc(O)c(-c3ccc(C)cc3C)cc2O)c(C)c1 : its GI50 reads 10.8 µM

Noted for COc1cc(NC(=O)C2=C(N3CCOCC3)/C(=C/c3ccc(Cl)cc3)CC2)cc(OC)c1OC : its GI50 reads > 100 µM

Noted for COC(=O)C(C)NC(=O)c1ccccc1I(OS(=O)(=O)C(F)(F)F)c1ccccc1 (centres undefined) : its GI50 reads 18.7 µM

Noted for C=CC(COC(c1ccccc1)(c1ccccc1)c1ccccc1)N(CC)CC (centres undefined) : its GI50 reads 3.59 µM

Noted for Cc1cc(I)cc(CN(C)CCCN2CCN(C)CC2)c1O : its GI50 reads 17.2 µM

Noted for O=C1OCC2=C1C(c1ccccc1)c1cc3c(cc1N2CCO)OCCO3 (centres undefined) : its GI50 reads 8.24 µM

Noted for N.N.O=P([O-])([O-])C1(P(=O)([O-])[O-])CCCCCN1.[Pt+2] : its GI50 reads > 100 µM

Noted for COc1cc2c3c(n(C)c(=O)c2cc1OC)-c1cc2c(cc1/C3=C\CCNCCCN)OCO2 : its GI50 reads 2.87 µM

Noted for O=C1C(Cl)=C(Nc2cccc(O)c2)C(=O)N1Cc1ccc(Cl)cc1Cl : its GI50 reads 3.89 µM

* * *

system: SF-539 CNS; assay: NCI tumour cell line growth inhibition, 48 h
Readout label: log10 of TGI (log10 of the value in µM)
Log scale reminder: TGI in µM, then log10 taken.

Noted for Cc1cc(S(=O)(=O)/N=C(/NN)NNc2cccc(C(F)(F)F)n2)c(S)cc1Cl : its log10 of TGI reads 1.64

Noted for CCOc1ccc2c(c1)c(=O)c1c(NCCN(CC)CC)ccc3nnn2c31 : its log10 of TGI reads 1.38

Noted for COc1ccc(Cn2cc3c(c2-c2cc(OC)c(OC)c(OC)c2)CCc2cnoc2-3)cc1 : its log10 of TGI reads 0.38

Noted for CN1CCN(C2=CC(=O)c3c(O)ccc(O)c3C2=O)CC1 : its log10 of TGI reads 0.47

* * *

system: PC-3 prostate; assay: NCI tumour cell line growth inhibition, 48 h
Readout label: GI50

Check out these entries, answers already filled in.
1. Cc1ccc([C@]2(C)CC[C@H](C)/C2=C\Br)c(O)c1    4200 nM
2. O=C(c1ccccc1)c1c(C(F)(F)F)n([O-])c2ccc(C(F)(F)F)cc2[n+]1=O    94.8 nM
3. CCCCCn1c(C)cc(/C=C\c2ccc3cc(C)ccc3[n+]2C)c1C    62.3 nM
4. CN(C)/N=N/c1nc[nH]c1C(N)=O    77200 nM
5. Cc1c(Cl)cccc1NC(=O)c1sc2nc3c(cc2c1N)CCCCC3    307 nM
6. C=C1C(=O)O[C@H]2[C@H]1CC/C(COC(=O)NCc1ccc(Cn3c(=O)sn(-c4ccccc4)c3=O)cc1)=C\CC[C@@]1(C)O[C@@H]21    2360 nM

Noted for COc1cc2c3c(n(C)c(=O)c2cc1OC)-c1cc2c(cc1/C3=C\CCNCCCN)OCO2 : its GI50 reads 2090 nM

Noted for COC(=O)C(C)NC(=O)c1ccccc1I(OS(=O)(=O)C(F)(F)F)c1ccccc1 (centres undefined) : its GI50 reads 22000 nM

Noted for C=C(C(=O)O[C@H]1C(=O)C2=C(C)CCC3C(=C)C(=O)O[C@@H]3C2[C@]1(C)O)C1CC[C@]2(C)CCCC(=C)[C@H]2C1 (some centres undefined) : its GI50 reads 4080 nM

* * *

test system: CCRF-CEM leukemia; assay: NCI tumour cell line growth inhibition, 48 h
Readout label: TGI (µM)
The figure you give is taken to be in µM; do not add the unit.

Check out these entries, answers already filled in.
1. COc1ccc2nc3cc(Cl)ccc3c(NCCNc3c4ccc(Cl)cc4nc4ccc(OC)cc34)c2c1    6.68
2. O=NN(CCCl)C(=O)NC1CCC(CC2CCC(NC(=O)N(CCCl)N=O)CC2)CC1 (stereo unspecified)    50.7
3. OCCN1CCN(CC/C=C2/c3ccccc3Sc3ccc(Cl)cc32)CC1    23.6
4. Cc1cc(S(=O)(=O)/N=C(/NN)NNc2cccc(C(F)(F)F)n2)c(S)cc1Cl    63.6
5. CCN1CCC(O)(/C=C/c2ccc(OC)cc2)C(C(=O)/C=C/c2ccc(OC)cc2)C1 (stereo unspecified)    5.76

Note to self: TGI of O=C1/C(=C/c2ccc(Br)cc2)CCC/C1=C\c1ccc(Br)cc1 with CCRF-CEM leukemia was 24.4

Note to self: TGI of CC(O)c1cc(C(=O)N[C@@H](C)Cn2ccc(-c3ccc(C#N)c(Cl)c3)n2)n[nH]1 (stereo partly specified) with CCRF-CEM leukemia was 39.9

Note to self: TGI of COc1ccc(C2=NN=C3C(c4ccccc4)=Nc4ccccc4N3C2)cc1 with CCRF-CEM leukemia was 8.24

Note to self: TGI of COc1ccc(C(=O)/C=C/c2cc(O)c(O)cc2F)c(OC)c1 with CCRF-CEM leukemia was 15.2

Note to self: TGI of C[C@@H](Nc1nc(Nc2ccc(F)c(Cl)c2)nc2ccccc12)C1CC1 with CCRF-CEM leukemia was 7.12

Note to self: TGI of Cc1ccc([C@]2(C)CC[C@H](C)/C2=C\Br)c(O)c1 with CCRF-CEM leukemia was 35.6

Note to self: TGI of Cn1cccc1/C=C/c1cc(Br)c(/C=C/c2cccn2C)cc1Br with CCRF-CEM leukemia was 62.2

Note to self: TGI of CC(=O)[CH-]C(=O)c1ccccc1.CC(=O)[CH-]C(=O)c1ccccc1.CC[O-].O=C1c2ccccc2C(=O)c2c1ccc(O)c2[O-].[Ti+4] with CCRF-CEM leukemia was 56.6

* * *

tested on: TK-10 renal; assay: NCI tumour cell line growth inhibition, 48 h
Readout label: TGI

Check out these entries, answers already filled in.
1) CC1(C)CCc2c(c(N=Nc3ccc(F)cc3)c3ccccc3c2O)O1    > 100 µM
2) O=C(/C=C\c1ccccc1)N1CCc2ccccc2C1    > 100 µM
3) CCN1CCC(O)(/C=C/c2ccc(C(C)C)cc2)C(C(=O)/C=C/c2ccc(C(C)C)cc2)C1 (configuration not stated)    6.16 µM

Noted for Cc1ccc(NC(=O)CSC(N)=O)cc1C : its TGI reads > 100 µM

Noted for Cc1sc2nc3n(c(=O)c2c1C)N=CN(c1ccc(F)cc1)C3 : its TGI reads > 100 µM

Noted for Cc1c(Cl)cccc1NC(=O)c1sc2nc3c(cc2c1N)CCCCC3 : its TGI reads 45.6 µM
